test system: Plasmodium falciparum; test: GSK_TCMDC: Inhibition of Plasmodium falciparum Dd2 in whole red blood cells, using parasite LDH activity as an index of growth. Test compounds present at 2uM; assay type: functional
endpoint.label: Inhibition (%)

{"compound": "O=C(Nc1cccc(F)c1)NC1CCN(c2ccnc3cc(Cl)ccc23)CC1.O=C(O)C(F)(F)F", "result.number": 37}
{"compound": "O=C(NCC1CCC(CNCCCc2ccccc2)CC1)c1cc(Cl)cc(Cl)c1 (stereo not drawn)", "result.number": 13}
{"compound": "Nc1nc(N)c2c(ccc3c2ccn3Cc2ccc(OCc3ccccc3)cc2)n1", "result.number": 1}
{"compound": "COc1ccc(S(=O)(=O)Nc2cc(Br)cc3c2OCCC3)cc1N1CCN(C(=O)C(Cl)(Cl)Cl)CC1", "result.number": 51}
{"compound": "CCCNC[C@@H](O)[C@H](Cc1ccccc1)NC(=O)c1cc2c3c(c1)c(CC)cn3CCS(=O)(=O)N2C", "result.number": 98}
{"compound": "Cc1cccc2nc(-c3ccc(-c4ccc(NC(=O)C(C)CN(C)C)cc4)s3)[nH]c12 (stereo not drawn)", "result.number": 98}
{"compound": "Cl.Oc1ccc(CCNc2nc(NCCCOc3ccccc3-c3ccc(C(F)(F)F)cc3)nc(N3CCNCC3)n2)cc1", "result.number": 49}
{"compound": "CS(=O)(=O)c1ccc(-c2cc(C(F)(F)F)nc(N[C@@H]3CCCC[C@H]3OCc3ccccc3)n2)cc1", "result.number": 99}
